- system-under-test: Cellular tumor antigen p53 (Homo sapiens) (UniProt P04637)
- Sequence (P04637 whole entry, looked up): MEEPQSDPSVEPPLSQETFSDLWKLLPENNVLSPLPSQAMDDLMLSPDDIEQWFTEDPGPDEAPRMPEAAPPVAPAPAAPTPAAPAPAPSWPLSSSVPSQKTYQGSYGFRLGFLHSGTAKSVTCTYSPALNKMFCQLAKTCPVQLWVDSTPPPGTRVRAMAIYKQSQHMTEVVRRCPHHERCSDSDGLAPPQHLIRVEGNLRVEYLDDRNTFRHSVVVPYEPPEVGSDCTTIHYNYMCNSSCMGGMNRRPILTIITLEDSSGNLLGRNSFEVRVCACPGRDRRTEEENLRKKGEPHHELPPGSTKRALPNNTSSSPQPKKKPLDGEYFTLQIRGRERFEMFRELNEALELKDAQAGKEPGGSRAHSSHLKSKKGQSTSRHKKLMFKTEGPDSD
- test-name: ATG_p53_CIS: Attagene CIS-FACTORIAL HepG2 Assay for human p53 Transcription Factor (AID 2282994)
- condition-description: HepG2 p53 cis-element reporter, Attagene mRNA; actives raise or lower the signal
The source made the active and inactive calls. The calls were made as follows: active = hit-call score of the fitted dose curve at least 0.9, where 1 is the maximum; inactive = score below 0.9.
Form entry, call: pick from active, inactive

Q: Could you check what this test reported for CCCCN1C(=O)[C@@H]([C@H](O)C2CCCCC2)NC(=O)C12CCN(Cc1ccc(Oc3ccc(C(=O)O)cc3)cc1)CC2 ?
Result: active

----------
- system-under-test: Nucleoli Translocation, AR (gene 367) (UniProt P10275)
- Sequence (P10275 whole entry, looked up): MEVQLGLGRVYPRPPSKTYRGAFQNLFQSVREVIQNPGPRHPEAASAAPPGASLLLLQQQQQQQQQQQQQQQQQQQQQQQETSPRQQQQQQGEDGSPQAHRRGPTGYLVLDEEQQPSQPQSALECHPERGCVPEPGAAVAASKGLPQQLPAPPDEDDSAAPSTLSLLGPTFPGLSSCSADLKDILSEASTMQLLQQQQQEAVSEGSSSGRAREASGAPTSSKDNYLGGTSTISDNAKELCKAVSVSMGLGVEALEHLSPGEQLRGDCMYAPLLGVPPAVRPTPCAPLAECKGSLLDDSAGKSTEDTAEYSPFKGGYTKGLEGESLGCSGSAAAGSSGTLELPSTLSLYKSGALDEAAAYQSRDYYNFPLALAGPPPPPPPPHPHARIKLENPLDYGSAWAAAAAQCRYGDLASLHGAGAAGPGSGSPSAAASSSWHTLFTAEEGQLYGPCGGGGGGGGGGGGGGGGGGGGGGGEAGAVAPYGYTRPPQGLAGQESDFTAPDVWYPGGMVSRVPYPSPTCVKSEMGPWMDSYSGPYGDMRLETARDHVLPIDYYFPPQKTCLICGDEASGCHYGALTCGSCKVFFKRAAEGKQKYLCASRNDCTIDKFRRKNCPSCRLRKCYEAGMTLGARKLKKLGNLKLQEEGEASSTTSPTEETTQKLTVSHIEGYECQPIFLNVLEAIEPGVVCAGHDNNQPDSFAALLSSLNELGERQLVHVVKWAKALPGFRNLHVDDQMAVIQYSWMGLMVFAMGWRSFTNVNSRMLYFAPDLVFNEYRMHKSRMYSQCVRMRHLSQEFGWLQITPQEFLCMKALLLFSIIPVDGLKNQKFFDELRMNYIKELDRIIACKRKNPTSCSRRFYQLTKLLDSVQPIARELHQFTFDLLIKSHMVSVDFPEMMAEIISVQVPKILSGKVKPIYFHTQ
- test-name: UPITT_HCI_U2OS_AR_TIF2_Nucleoli_Agonist: University of Pittsburgh U2OS Androgen Receptor-Transcriptional Intermediary Factor 2 (AR-TIF2) Agonism High Content Imaging Assay for Nucleoli Translocation (AID 2283998)
Inconclusive results are not listed. Calls of active or inactive are those of the source. Rule for the calls: active = hit-call score of the fitted dose curve at least 0.9, where 1 is the maximum; inconclusive = response in the unintended direction; inactive = score below 0.9.
Form entry, call: pick from 1.0 (active), 0.0 (inactive)

Solved entries (count: 3):
C=CCc1cc(S(=O)(=O)c2ccc(O)c(CC=C)c2)ccc1O : 1.0
CCN(CC)C(=S)SSC(=S)N(CC)CC : 1.0
CCCCC(CC)C(=O)OCCOCCOCCOC(=O)C(CC)CCCC (stereo unspecified) : 0.0

Q: Could you check what this test reported for CCCCCCOC(=O)CC(CC(=O)OCCCCCC)(OC(=O)CCC)C(=O)OCCCCCC ?
Result: 0.0

Q: Could you check what this test reported for COc1cc2c(c(OC)c1OC)-c1ccc(OC)c(=O)cc1[C@@H](NC(C)=O)CC2 ?
Result: 0.0

Q: Could you check what this test reported for CCCCOC(=O)c1ccccc1 ?
Result: 0.0
